Reported MIC values for the following compounds.
- Test system: Candida albicans
- TEST: Antimicrobial activity against Candida albicans after 48 hrs by agar dilution method
- Assay type: functional
Numbers only; they are read as µg/mL.

Worked examples follow.
COMPOUND_STRUCTURE_STRING | MIC (µg/mL)
Cn1cc([N+](=O)[O-])cc1C(=O)NNC(=O)NCCc1ccccc1 | 1.56
Cc1ccccc1NC(=S)NNC(=O)c1cc([N+](=O)[O-])cn1C | 0.78
O=C(NNC(=O)c1cc([N+](=O)[O-])c[nH]1)Nc1ccccc1 | 3.12

Query block: Using the record for Cn1cc([N+](=O)[O-])cc1C(=O)NNC(=S)NCCc1ccccc1 , report its MIC.
Result block: 0.78

Query block: Same read-out for Cn1cc([N+](=O)[O-])cc1C(=O)NNC(=S)Nc1ccc(F)cc1 ?
Result block: 0.78

Query block: Same read-out for Cn1cc([N+](=O)[O-])cc1C(=O)NNC(=O)NC1CCCC1 ?
Result block: 1.56

Query block: Same read-out for O=C(NNC(=O)c1cc([N+](=O)[O-])c[nH]1)Nc1ccc([N+](=O)[O-])cc1 ?
Result block: 3.12

Values were extracted from ChEMBL document CHEMBL3351318.
